Biological target: Poly [ADP-ribose] polymerase 1 (Homo sapiens, UniProt P09874)
Sequence (P09874 whole entry): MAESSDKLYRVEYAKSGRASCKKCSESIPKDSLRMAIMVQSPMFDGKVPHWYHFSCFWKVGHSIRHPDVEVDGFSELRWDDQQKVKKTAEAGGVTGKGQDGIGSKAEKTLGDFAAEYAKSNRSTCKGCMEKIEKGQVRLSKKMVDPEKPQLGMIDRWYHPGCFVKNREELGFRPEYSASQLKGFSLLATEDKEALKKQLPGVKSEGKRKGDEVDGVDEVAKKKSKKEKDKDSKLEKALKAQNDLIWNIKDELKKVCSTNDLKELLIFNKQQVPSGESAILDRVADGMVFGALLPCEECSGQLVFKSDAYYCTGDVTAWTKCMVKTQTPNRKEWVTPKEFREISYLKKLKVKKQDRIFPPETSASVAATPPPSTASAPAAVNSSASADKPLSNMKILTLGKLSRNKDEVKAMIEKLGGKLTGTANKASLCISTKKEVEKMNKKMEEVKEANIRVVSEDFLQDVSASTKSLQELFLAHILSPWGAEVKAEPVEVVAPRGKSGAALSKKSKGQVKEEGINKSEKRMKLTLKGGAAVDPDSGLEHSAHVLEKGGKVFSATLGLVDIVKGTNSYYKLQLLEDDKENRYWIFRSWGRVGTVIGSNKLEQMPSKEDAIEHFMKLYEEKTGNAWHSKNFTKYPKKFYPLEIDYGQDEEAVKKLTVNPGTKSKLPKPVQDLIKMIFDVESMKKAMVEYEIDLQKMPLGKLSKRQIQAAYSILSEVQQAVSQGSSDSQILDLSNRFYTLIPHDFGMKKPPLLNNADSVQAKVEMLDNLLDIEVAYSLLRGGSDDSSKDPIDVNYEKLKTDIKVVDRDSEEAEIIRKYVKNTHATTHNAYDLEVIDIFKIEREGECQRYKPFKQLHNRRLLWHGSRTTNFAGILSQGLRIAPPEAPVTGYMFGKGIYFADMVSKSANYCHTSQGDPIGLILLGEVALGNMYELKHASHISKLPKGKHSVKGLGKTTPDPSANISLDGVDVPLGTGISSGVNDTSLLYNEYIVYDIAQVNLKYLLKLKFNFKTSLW
Experiment: Inhibition of recombinant human PARP1 using NAD+ as substrate incubated for 1 hr by ELISA
pIC50: −log10 of the molar value.
reported property: pIC50

Study these solved cases before continuing.
>>> df
                    structure_smiles_string  readout_number
0  CC[C@H]1CN(C(=O)c2cc(Cn3c(=O)[nH]c(=O)c4ccccc43)ccc2F)CCN1CC(F)(F)F            7.22
1  CC[C@H]1CN(C(=O)c2cc(Cn3c(=O)[nH]c(=O)c4ccccc43)ccc2F)CCN1C(C)=O            7.86
2  CCCN1CCN(C(=O)c2cc(Cn3c(=O)[nH]c(=O)c4ccccc43)ccc2F)C[C@H]1C            7.73

I. CC(C)CN1CCN(C(=O)c2cc(Cn3c(=O)[nH]c(=O)c4ccccc43)ccc2F)C[C@@H]1C
II. CC[C@@H]1CN(C(=O)c2cc(Cn3c(=O)[nH]c(=O)c4ccccc43)ccc2F)CCN1C(=O)C(F)(F)F
Request: Lower pIC50: I or II ? Return value: the label identifying the chosen record.
Response: I
